B1: EHEE_rd2_0196 (parent)
chain: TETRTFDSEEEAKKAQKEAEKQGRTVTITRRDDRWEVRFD

# Variants of: B1
# Assay overview: folding stability dG (cDNA display proteolysis); higher = more stable
# Test settings: PBS, room temperature
Param threshold (2 kcal/mol) applies to folding stability dG; output Condition met when value >= threshold, Condition not met when value < threshold.

Exercise: Does the variant W35R have recorded folding stability dG that is 2 kcal/mol or more?
Solution: Condition not met

Exercise: Decide: is the reported value of folding stability dG for E36K equal to or greater than 2 kcal/mol?
Solution: Condition not met

Exercise: Record K21I ; criterion: folding stability dG no lower than 2 kcal/mol. Met?
Solution: Condition met

Exercise: State whether the measured folding stability dG reaches 2 kcal/mol, counting equality as reaching it, for E11F
Solution: Condition not met

Exercise: Check if folding stability dG >= 2 kcal/mol (inclusive). Item: R38H
Solution: Condition met

Exercise: Has R4S a recorded folding stability dG greater than or equal to 2 kcal/mol?
Solution: Condition met

Exercise: Threshold query (folding stability dG >= 2 kcal/mol) on A19N
Solution: Condition not met

Exercise: Say whether E2M shows folding stability dG of 2 kcal/mol or more.
Solution: Condition met

Exercise: Determine whether this variant has folding stability dG no lower than 2 kcal/mol: T25G
Solution: Condition met

Exercise: Does folding stability dG meet or surpass 2 kcal/mol for R34M ?
Solution: Condition met

Exercise: Would you say E18N shows folding stability dG at minimum 2 kcal/mol?
Solution: Condition met

Exercise: Please tell me: is the variant F39R at or over 2 kcal/mol in terms of folding stability dG?
Solution: Condition not met

Exercise: State whether the measured folding stability dG reaches 2 kcal/mol, counting equality as reaching it, for E10F
Solution: Condition met

Exercise: Reported folding stability dG at or above 2 kcal/mol? T27P
Solution: Condition not met

Exercise: Item D32F with folding stability dG of 2 kcal/mol or above?
Solution: Condition met

Exercise: // inclusive: folding stability dG at least 2 kcal/mol? input: K17L
Solution: Condition met

Exercise: API: above_or_equal(metric=folding stability dG, cutoff=2 kcal/mol) for item R34A
Solution: Condition met

Exercise: Say whether T27A shows folding stability dG of 2 kcal/mol or more.
Solution: Condition met

Exercise: Hi, just wondering whether T5N shows folding stability dG of 2 kcal/mol or higher.
Solution: Condition met

Exercise: Determine whether this variant has folding stability dG no lower than 2 kcal/mol: T25E
Solution: Condition met

Exercise: Exam item: decide whether the reported folding stability dG for E18D is at least 2 kcal/mol.
Solution: Condition met

Exercise: Dear colleague, could you confirm whether E11D has folding stability dG at or above 2 kcal/mol?
Solution: Condition met

Exercise: Reported folding stability dG reaches at least 2 kcal/mol for K17Y ?
Solution: Condition met

Exercise: # bool: folding stability dG of T3V >= 2 kcal/mol
Solution: Condition met

Exercise: Given K14R , state whether its folding stability dG is at least 2 kcal/mol.
Solution: Condition met

Exercise: Threshold query (folding stability dG >= 2 kcal/mol) on Q16V
Solution: Condition met

Exercise: Reported folding stability dG at or above 2 kcal/mol? R34G
Solution: Condition met

Exercise: Exam item: decide whether the reported folding stability dG for A15L is at least 2 kcal/mol.
Solution: Condition met

Exercise: Item T1K with folding stability dG of 2 kcal/mol or above?
Solution: Condition met

Exercise: Check this variant for folding stability dG at or above 2 kcal/mol: D40L
Solution: Condition met

Exercise: Could you please find out whether W35P has folding stability dG that meets 2 kcal/mol or exceeds it?
Solution: Condition not met

Exercise: Is it the case that D33V has folding stability dG reaching or exceeding 2 kcal/mol?
Solution: Condition not met

Exercise: // inclusive: folding stability dG at least 2 kcal/mol? input: A19D
Solution: Condition not met

Exercise: Could you tell me if the measured folding stability dG of A12N reaches 2 kcal/mol or more?
Solution: Condition not met

Exercise: Tell me whether folding stability dG is at least 2 kcal/mol here: E36S
Solution: Condition not met

Exercise: Does D32Q have a reported folding stability dG of at least 2 kcal/mol?
Solution: Condition met

Exercise: Is reported folding stability dG greater than or equal to 2 kcal/mol here: K21E
Solution: Condition met

Exercise: Is folding stability dG for K13W at or above 2 kcal/mol?
Solution: Condition met

Exercise: # check: folding stability dG of R34L is greater than or equal to 2 kcal/mol
Solution: Condition met

Exercise: Item K17E with folding stability dG of 2 kcal/mol or above?
Solution: Condition met

Exercise: folding stability dG >= 2 kcal/mol for R34K ?
Solution: Condition met

Exercise: Does A15P have a reported folding stability dG of at least 2 kcal/mol?
Solution: Condition not met

Exercise: Does folding stability dG meet or surpass 2 kcal/mol for R31H ?
Solution: Condition met

Exercise: Exam item: decide whether the reported folding stability dG for T29A is at least 2 kcal/mol.
Solution: Condition met

Exercise: Would you say S8W shows folding stability dG at minimum 2 kcal/mol?
Solution: Condition not met

Exercise: Hi, just wondering whether E18T shows folding stability dG of 2 kcal/mol or higher.
Solution: Condition met

Exercise: hey, is folding stability dG for this one >= 2 kcal/mol? T1S
Solution: Condition met

Exercise: Is folding stability dG at least 2 kcal/mol? Consider K13V
Solution: Condition met

Exercise: Can S8D be said to have folding stability dG at or above 2 kcal/mol?
Solution: Condition met

Exercise: Tell me whether folding stability dG is at least 2 kcal/mol here: K14G
Solution: Condition met

Exercise: Does the reported folding stability dG for E18Y fall at or above the 2 kcal/mol mark?
Solution: Condition met

Exercise: Does folding stability dG meet or surpass 2 kcal/mol for R24Y ?
Solution: Condition met

Exercise: Does S8H have a reported folding stability dG of at least 2 kcal/mol?
Solution: Condition met

Exercise: Check if folding stability dG >= 2 kcal/mol (inclusive). Item: D32S
Solution: Condition met

Exercise: Is the recorded value of folding stability dG equal to or greater than 2 kcal/mol for this variant? E2F
Solution: Condition met

Exercise: Does folding stability dG meet or surpass 2 kcal/mol for I28L ?
Solution: Condition met

Exercise: Entry K13D : is its folding stability dG no less than 2 kcal/mol?
Solution: Condition met

Exercise: Assess whether reported folding stability dG for T1N sits at 2 kcal/mol or higher.
Solution: Condition met

Exercise: Decide: folding stability dG of E2T >= 2 kcal/mol?
Solution: Condition met

Exercise: Is reported folding stability dG greater than or equal to 2 kcal/mol here: W35H
Solution: Condition not met

Exercise: Form field: folding stability dG at least 2 kcal/mol? Entry: E10A
Solution: Condition met

Exercise: Check this variant for folding stability dG at or above 2 kcal/mol: D40N
Solution: Condition met

Exercise: Is reported folding stability dG greater than or equal to 2 kcal/mol here: V26S
Solution: Condition met

Exercise: Quick check, folding stability dG >= 2 kcal/mol? E10Y
Solution: Condition met

Exercise: Could you please find out whether R4M has folding stability dG that meets 2 kcal/mol or exceeds it?
Solution: Condition met

Exercise: Is folding stability dG for R31I at or above 2 kcal/mol?
Solution: Condition met

Exercise: Does folding stability dG meet or surpass 2 kcal/mol for D7I ?
Solution: Condition met

Exercise: Would you say R31Q shows folding stability dG at minimum 2 kcal/mol?
Solution: Condition met

Exercise: API: above_or_equal(metric=folding stability dG, cutoff=2 kcal/mol) for item E11K
Solution: Condition met

Exercise: Does R38K have a reported folding stability dG of at least 2 kcal/mol?
Solution: Condition met

Exercise: Check this variant for folding stability dG at or above 2 kcal/mol: E11T
Solution: Condition not met

Exercise: Is folding stability dG at least 2 kcal/mol? Consider D7K
Solution: Condition met

Exercise: Would you say T3K shows folding stability dG at minimum 2 kcal/mol?
Solution: Condition met

Exercise: Form field: folding stability dG at least 2 kcal/mol? Entry: G23R
Solution: Condition not met

Exercise: Reported folding stability dG reaches at least 2 kcal/mol for V37Q ?
Solution: Condition not met

Exercise: // inclusive: folding stability dG at least 2 kcal/mol? input: S8Q
Solution: Condition not met

Exercise: Confirm if folding stability dG reported for the variant E36H is 2 kcal/mol or above.
Solution: Condition met

Exercise: Is it the case that E2P has folding stability dG reaching or exceeding 2 kcal/mol?
Solution: Condition met

Exercise: Determine whether measured folding stability dG meets or exceeds 2 kcal/mol for R38F
Solution: Condition met

Exercise: Reported folding stability dG reaches at least 2 kcal/mol for T5P ?
Solution: Condition not met

Exercise: Tell me whether folding stability dG is at least 2 kcal/mol here: E18K
Solution: Condition met

Exercise: Does folding stability dG meet or surpass 2 kcal/mol for I28E ?
Solution: Condition not met

Exercise: Quick check, folding stability dG >= 2 kcal/mol? I28M
Solution: Condition not met

Exercise: Is folding stability dG at least 2 kcal/mol? Consider F6K
Solution: Condition not met

Exercise: folding stability dG >= 2 kcal/mol for V26P ?
Solution: Condition not met

Exercise: Determine whether this variant has folding stability dG no lower than 2 kcal/mol: E36Y
Solution: Condition met

Exercise: Does G23W have a reported folding stability dG of at least 2 kcal/mol?
Solution: Condition not met

Exercise: State whether the measured folding stability dG reaches 2 kcal/mol, counting equality as reaching it, for E20Y
Solution: Condition met
